The entries below are paired with their reported pIC50.
- experimental-system: GDP-loaded HIS-KRAS (G12D, aa 1-169) (Homo sapiens, UniProt P01116, G12D)
- Construct: GDP-loaded HIS-KRAS (G12D, aa 1-169)
- Sequence (P01116 1-169 isoform P01116-2 G12D): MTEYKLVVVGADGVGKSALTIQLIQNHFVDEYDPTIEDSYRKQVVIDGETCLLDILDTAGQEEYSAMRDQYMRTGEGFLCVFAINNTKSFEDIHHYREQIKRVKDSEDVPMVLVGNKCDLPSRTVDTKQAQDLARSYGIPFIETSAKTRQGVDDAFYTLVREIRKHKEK
- assay-remarks: SOS1 catalyzed nucleotide exchange assay
- measurement-parameters: SOS1 ExD, TR-FRET, 4 hours at 25° C.
pIC50: −log10 of the molar value.

# compound, experimental-system, pIC50
measured = [
    ("C#Cc1cccc2cc(O)cc(-c3c(F)cc4c(N5CC6CCC(C5)N6)nc(OCC5(CN6CCOCC6)CC5)nc4c3F)c12 [Compound 41]", "GDP-loaded HIS-KRAS (G12D, aa 1-169) (Homo sapiens, UniProt P01116, G12D)", 8.04),
    ("C#Cc1cccc2cc(O)cc(-c3ccc4c(N5CC6CC(C5)N6)nc(OCC5(CN6CCOCC6)CC5)nc4c3F)c12", "GDP-loaded HIS-KRAS (G12D, aa 1-169) (Homo sapiens, UniProt P01116, G12D)", 7.94),
    ("C#Cc1cccc2cc(O)cc(-c3cc4nc(OCC5(CN6CCOCC6)CC5)nc(N5CC6CCC(C5)N6)c4cc3F)c12", "GDP-loaded HIS-KRAS (G12D, aa 1-169) (Homo sapiens, UniProt P01116, G12D)", 7.55),
    ("C#Cc1cccc2cc(O)cc(-c3ccc4c(N5CC6CCC(C5)N6)nc(OCC5(CN(C)CCO)CC5)nc4c3F)c12", "GDP-loaded HIS-KRAS (G12D, aa 1-169) (Homo sapiens, UniProt P01116, G12D)", 7.68),
    ("C#Cc1c(OC)ccc2cc(O)cc(-c3ccc4c(N5CC6CCC(C5)N6)nc(OCC5(CN6CCOCC6)CC5)nc4c3F)c12", "GDP-loaded HIS-KRAS (G12D, aa 1-169) (Homo sapiens, UniProt P01116, G12D)", 8.27),
    ("C#Cc1cccc2cc(O)cc(-c3c(SC(F)(F)F)cc4c(N5CC6CCC(C5)N6)nc(OCC5(CN6CCOCC6)CC5)nc4c3F)c12 (single isomer, unassigned) [Compound 59B]", "GDP-loaded HIS-KRAS (G12D, aa 1-169) (Homo sapiens, UniProt P01116, G12D)", 8.78),
    ("C#Cc1cccc2cc(O)cc(-c3ccc4c(N5CC6CCC(C5)N6)nc(OC[C@@]56CCCN5C[C@H](F)C6)nc4c3F)c12", "GDP-loaded HIS-KRAS (G12D, aa 1-169) (Homo sapiens, UniProt P01116, G12D)", 8.52),
    ("C#Cc1cccc2cc(O)cc(-c3cc4nc(OC[C@@]56CCCN5C[C@H](F)C6)nc(N5CC6CCC(C5)N6)c4cc3C)c12", "GDP-loaded HIS-KRAS (G12D, aa 1-169) (Homo sapiens, UniProt P01116, G12D)", 8.03),
    ("C#Cc1cccc2cc(O)cc(-c3ccc4c(N5C[C@H]6C[C@@H]5CN6)nc(OCC5(CN6CCOCC6)CC5)nc4c3F)c12", "GDP-loaded HIS-KRAS (G12D, aa 1-169) (Homo sapiens, UniProt P01116, G12D)", 7.05),
    ("C#Cc1cccc2cc(O)cc(-c3ccc4c(N5C6CCC5CNC6)nc(OC[C@@]56CCCN5C[C@H](F)C6)nc4c3F)c12", "GDP-loaded HIS-KRAS (G12D, aa 1-169) (Homo sapiens, UniProt P01116, G12D)", 8.07),
    ("C#Cc1cccc2cc(O)cc(-c3c(F)cc4c(N5CC6CCC(C5)N6)nc(OCC5(CN6CCOCC6)CC5)nc4c3Cl)c12", "GDP-loaded HIS-KRAS (G12D, aa 1-169) (Homo sapiens, UniProt P01116, G12D)", 7.74),
    ("C#Cc1cccc2cc(O)cc(-c3c(C#N)cc4c(N5CC6CCC(C5)N6)nc(OCC5(CN6CCOCC6)CC5)nc4c3F)c12 (single isomer, unassigned) [Compound 60A]", "GDP-loaded HIS-KRAS (G12D, aa 1-169) (Homo sapiens, UniProt P01116, G12D)", 6.12),
    ("C#Cc1cccc2cc(O)cc(-c3c(F)cc4c(N5CC6CCC(C5)N6)nc(OCC5(CN6CCOCC6)CC5)nc4c3C)c12", "GDP-loaded HIS-KRAS (G12D, aa 1-169) (Homo sapiens, UniProt P01116, G12D)", 8.80),
]
